tested on: SNB-19; test: NCI tumour cell line growth inhibition, 48 h
Activity calls are given as the source filed them. Rule as the data show it: active = GI50 up to about 1.1 µM and inactive = higher.
Collected GI50 values appear next to each entry.

{"columns": ["molecule", "data value"],
 "data": [
  ["CN(Cc1cnc2nc(N)nc(N)c2n1)c1ccc(C(=O)NC(CCS(=O)(=O)O)C(=O)O)cc1 (stereo not given)", "7.16 µM (inactive)"],
  ["CCCCCCCCCCNC(=O)CCC(NC(=O)c1ccc(N(C)Cc2cnc3nc(N)nc(N)c3n2)cc1)C(=O)NCCCCCCCCCC (stereo not given)", "9.46 µM (inactive)"],
  ["CC1(C)O[C@@H]2[C@@H]3OC(=O)C[C@@H]3[C@@H](COCc3ccccc3)[C@@H]2O1", "> 100 µM (inactive)"],
  ["CC1=C(/C=C/C(C)=C/C=C/C(C)=C/C(=O)OC2CC(n3cc(F)c(=O)[nH]c3=O)OC2CO)C(C)(C)CCC1 (stereo not given)", "3.34 µM (inactive)"],
  ["Brc1ccc2[nH]cc(-c3csc(-c4c[nH]c5ccccc45)n3)c2c1", "3.32 µM (inactive)"],
  ["COc1cc(/C=C2\\CC3C4CC=C5C[C@@H](O)CC[C@]5(C)C4CC[C@]3(C)\\C2=N\\O)cc(OC)c1OC (stereo not given in full)", "21.3 µM (inactive)"]
]}

Please find the next molecule below.
(Q) # GI50 lookup, item COCN1C(=O)[C@@H]2CCCN2C(=O)c2cc(N)ccc21
(A) > 100 µM (inactive)

====

Measured GI50 values are reported for all entries that follow.
test system: RPMI-8226; assay: NCI tumour cell line growth inhibition, 48 h
Activity calls are given as the source filed them. Cut-off read from the data, not from the text of the source: active = GI50 up to about 1.1 µM and inactive = higher.

{"columns": ["compound", "system", "quantity name", "data value"],
 "data": [
  ["COc1ccc(CCNC(=S)NC=C2C(=O)c3ccccc3C2=O)cc1OC", "RPMI-8226", "GI50", "17.9 µM (inactive)"],
  ["COC(=O)CCc1ccc2c(c1)CC1(C2)Cc2ccc(CCC(=O)OC)cc2C1", "RPMI-8226", "GI50", "28.4 µM (inactive)"],
  ["c1ccc2c3nc(C4CCCC4)nc-3c(NC3CCCC3)[nH]c2c1", "RPMI-8226", "GI50", "21.2 µM (inactive)"],
  ["O=C(O)CCCCCOc1cccnc1/C=N/NC1=NCCN1", "RPMI-8226", "GI50", "> 100 µM (inactive)"],
  ["C=CC(OC(C)=O)c1ccc(OC(C)=O)cc1 (configuration not stated)", "RPMI-8226", "GI50", "2.25 µM (inactive)"],
  ["CN(NC1=NCCO1)c1ccc2ccccc2c1", "RPMI-8226", "GI50", "76.7 µM (inactive)"]
]}

(Q) Requested read-out: GI50. Entry: Brc1ccc2[nH]cc(-c3csc(-c4c[nH]c5ccc(Br)cc45)n3)c2c1
(A) 1.64 µM (inactive)

(Q) Reported GI50 for COC(=O)C(Cc1ccccc1)NC(=O)C(CCC(=O)OCc1ccccc1)NC(=O)OC(C)(C)C (configuration not stated) : what is it?
(A) 25 µM (inactive)

(Q) State the recorded GI50 for this entry: CCOC(=O)/C(Br)=C1\OC(=O)c2ccccc2-c2ccccc21
(A) 27.9 µM (inactive)

====

system: TK-10; test: NCI tumour cell line growth inhibition, 48 h
Calls of active or inactive are those of the source. Cut-off read from the data, not from the text of the source: active = GI50 up to about 1.1 µM and inactive = higher.
Documented GI50 across a set of compounds

{"columns": ["compound", "GI50"],
 "data": [
  ["COc1cccc(C2SCC(=O)N2c2ccc(-c3ccc(-n4c(-c5ccccc5)nc5ccccc5c4=O)cc3)cc2)c1OC (stereo not given)", "> 100 µM (inactive)"],
  ["COc1ccc(-c2cc(-c3ccccc3)[nH]c(=S)c2C#N)cc1", "76.7 µM (inactive)"],
  ["CC1=C(C)C(=O)OC(C(C)(O)C2(O)CCC3(O)C4CC(Cl)C5(O)C(O)C=CC(=O)C5(C)C4CCC32C)C1 (stereo not given)", "34.3 µM (inactive)"],
  ["CC1(C)O[C@@H]2[C@@H]3OC(=O)C[C@@H]3[C@@H](COCc3ccccc3)[C@@H]2O1", "> 100 µM (inactive)"]
]}

(Q) Any idea what its GI50 is? The compound is C=CC(OC(C)=O)c1ccc(OC(C)=O)cc1 (stereo not given)
(A) 2.17 µM (inactive)
